Target: SARS-CoV-2 spike protein receptor binding domain (RBD2) (SARS-CoV-2, UniProt P0DTC2 319-537)
Test: SPR sandwich binning, ligand G07
MEASURED PROPERTY: normalized analyte binding to RBD2 held by the immobilized ligand
Field format: numeric only.

>  <BINDER>
E08 IgG1 (antibody, V domains shown) VH: QVQLVQSGAEVKKPGSSVKVSCKASGGTFSSYAISWVRQAPGQGLEWMGGIIPIFGTANYAQKFQGRVTITADESTSTAYMELSSLRSEDTAVYYCARASGRWLQFWHYYGMDVWGQGTTVTVSS VL: SYVLTQPPSVSVAPGKTARITCGGNNIGWKSVHWYQQKPGQAPVLVVYDDSDRPSGIPERFSGSNSGNTATLTISRVEAGDEADYYCQVWDSSSDLVVFGGGTKLTVL

>  <VALUE>
2.62

$$$$

Can you share its normalized analyte binding to RBD2 held by the immobilized ligand? I mean this binder: G07 IgG1 (antibody, V domains shown) VH: QVQLVQSGAEVKKPGESLKISCKGSGYSFTSYWIGWVRQMPGKGLEWMGIIYPGDSDIRYSPSFQGQVTISADKSFSSAYLQWSSLKASDTAMYYCARLGATGAFDIWGQGTTVTVSS VL: QSVLIQPPSASGTPGQRVTISCSGSNSNFGSNSVSWYQQRPGTAPKLLIEGNNQRPSGVPERFSGSKSGTSASLAISGLQSEDEAEYSCASWDDSLNAFVFGPGTKLTVL -0.05

Which value of normalized analyte binding to RBD2 held by the immobilized ligand has been reported for B04 IgG1 (antibody, V domains shown) VH: QVQLVESGAEVKKPGASVKVSCKASGYTFTRYYMHWVRQAPGQGLEWMGIINPSGGTTSYAQKFQGRVTMTRDTSTSTVYMELSSLRSEDTAVYYCARSFGELTSFDYWGQGTLVTVSS VL: SYVLTQPPSVSVAPGKTARITCGGNNIGIRSVHWYQQKPGQAPVLVIYYDSDRPSGIPERFSGSKSGNTATLTISRVEAGDEADYYCQVWDSSSDHPVFGGGTKLTVL in the records? -0.07

I would be grateful if you could share the reported normalized analyte binding to RBD2 held by the immobilized ligand for H01 IgG1 (antibody, V domains shown, also called H1) VH: QVTLKESGPVLVKPTETLTLTCTVSGFSLSNARMGVSWIRQPPGKALEWLAHIFSNGEKSYSTSLKSRLTISKDTSKSQVVLTMTNMDPVDTATYYCARTLDYYDSSGYLVGGAFDIWGQGTMVTVSS VL: QPGLTQPPSVSLAPGQTARITCGGNNIGSKSVHWYQQKPGQAPVLVVYDDSDRPSGIPERFSGSNAGNTATLTISRVEAGDEADYYCQVWDSRSDQYVFGTRTKLTVL . 1.28

For the binder F07 IgG1 (antibody, V domains shown) VH: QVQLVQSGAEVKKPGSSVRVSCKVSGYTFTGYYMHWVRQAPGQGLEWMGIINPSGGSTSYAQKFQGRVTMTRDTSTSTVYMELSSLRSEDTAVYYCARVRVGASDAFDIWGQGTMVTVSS VL: SYVLTQPPSVSVAPGQTARITCGGNNIGSKSVHWYQQKPGQAPVLVVYDDSDRPSGIPERFSGSNSGNTATLIISRVEAGDEADYYCQVWDSSSVHYVFGTGTKLTVL , what normalized analyte binding to RBD2 held by the immobilized ligand is on record? 0.14

GET /values?readout=normalized analyte binding to RBD2 held by the immobilized ligand&item= H05 IgG1 (antibody, V domains shown, also called H5; HO5) VH: QVQLVQSGAEVKKPGSSVKVSCKASGGTFSSYAISWVRQAPGQGLEWMGGIIPIFGTANYAQKFQGRVTITADESTSTAYMELSSLRSEDTAVYYCARSIFGVVIISHADGYYYGMDVWGQGTTVTVSS VL: SYVLTQPPSVSVAPGQTARITCGANNIGRISVHWYQQKPGQAPVLVVYDDSDRPSGIPERFSGSNFGNTATLTISRVEAGDEADYYCQVWDSYSDHVIFGGGTKLTVL 0.9

Can you look up the measured normalized analyte binding to RBD2 held by the immobilized ligand of E01 IgG1 (antibody, V domains shown, also called E1) VH: QVQLQQWGAGLLKPSETLSLKCAVYGGSFSGYYWGWIRQSTGKGLEWIGEINRSGSTNYNPSLKSRVTISVDTSKNQFSLKLSSVTAADTAVYYCARGGARYYYGSGSYRSTPRPYYFDYWGQGTLVTVSS VL: SYELTQPPSVSVAPGETARITCGGDNIGRRHVHWYQQKPGQAPVLVIYDDSDRPSGIPDRFSGSNSGNTATLTIGRVEAGDEADYYCQVWGSSNDPHVFGTGTKLTVL for me? 2.43
